Each record here notes measured recombinant barcode read abundance (log10).
- assay_overview: recombinant barcode read abundance after kanamycin selection (control-corrected) (log10(CPM+1)); higher = more efficient recombination; sequences stand for … in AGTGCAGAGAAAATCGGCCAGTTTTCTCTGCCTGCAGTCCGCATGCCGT…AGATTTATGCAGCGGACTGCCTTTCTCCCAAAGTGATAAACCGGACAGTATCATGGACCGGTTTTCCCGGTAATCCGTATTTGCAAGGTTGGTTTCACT; site = the 11-nt target
Form: value (number only, do not type unit).

sequence_chain	observed_value
ACGACTACTTGGGTTCTAACCTGTTGCCG (site TATTGGCCTAC)	0.123
CACACTACTTGGGTTCTAACCTGTTGCTT (site TATACTACTAA)	0.101
GATCGCGCTTGGGTTCTAACCTGTTGCCT (site GATCGCGCTAG)	0.231

**Query** Which value of recombinant barcode read abundance (log10) has been reported for TAGGCTACTTGGGTTCTAACCTGTTGCAT (site TAGGCTACTAT) in the records?
**Result** 1.06

**Query** Which value of recombinant barcode read abundance (log10) has been reported for TTGGTCGCTTGGGTTCTAACCTGTTGCCT (site TTGGTCGCTAG) in the records?
**Result** 1.71

**Query** Which value of recombinant barcode read abundance (log10) has been reported for GTGTGTACTTGGGTTCTAACCTGTTGCCT (site GTGTGTTCTAG) in the records?
**Result** 0.0215

**Query** Which value of recombinant barcode read abundance (log10) has been reported for GTCGCGACTTGGGTTCTAACCTGTTGCCT (site GTCGCGCCTAG) in the records?
**Result** 0.353

**Query** Which value of recombinant barcode read abundance (log10) has been reported for CCGAGAGCTTGGGTTCTAACCTGTTGCCT (site CTGAGAGCTAG) in the records?
**Result** 0.0419

**Query** Which value of recombinant barcode read abundance (log10) has been reported for GAGACAGCTTGGGTTCTAACCTGTTGCCT (site GAGACAGCTAG) in the records?
**Result** 1.54

**Query** Which value of recombinant barcode read abundance (log10) has been reported for AGTCGACCTTGGGTTCTAACCTGTTGCCT (site AGTCGACCTAG) in the records?
**Result** 1.78

###

- assay_overview: recombinant UMI read abundance after kanamycin selection (control-corrected) (log10(CPM+1)); higher = more efficient recombination; extreme values may be limits of the assay; sequences stand for … in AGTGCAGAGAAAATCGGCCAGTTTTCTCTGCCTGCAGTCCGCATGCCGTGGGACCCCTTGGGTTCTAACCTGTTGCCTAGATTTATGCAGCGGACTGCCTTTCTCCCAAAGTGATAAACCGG…AGGTTGGTTTCACT; site = the 11-nt donor
Short version: recombinant UMI read abundance (log10) at least 0.6 is MET, less is NOT MET.

Look over these answered cases.
sequence_chain	label
AGCTTAGCATGGACCGGTTTTCCCGGTAATCCGTATTTGTT (site AGCATAGCTAA)	NOT MET
CATTGACCATGGACCGGTTTTCCCGGTAATCCGTATTTGAG (site CATTGACCTCT)	NOT MET
CAAAGGGCATGGACCGGTTTTCCCGGTAATCCGTATTTGTA (site CAAAGGGCTTA)	MET
AGGACGACATGGACCGGTTTTCCCGGTAATCCGTATTTGCT (site AGGACGACTAG)	MET
CCGGATCCATGGACCGGTTTTCCCGGTAATCCGTATTTGTT (site CCGGATCCTAA)	NOT MET

**Query** Has TCACAGACATGGACCGGTTTTCCCGGTAATCCGTATTTGCG (site TCAGAGACTCG) a recorded recombinant UMI read abundance (log10) greater than or equal to 0.6?
**Result** NOT MET

**Query** Has GCCCTTGCATGGACCGGTTTTCCCGGTAATCCGTATTTGAC (site GCCCTTGCTGT) a recorded recombinant UMI read abundance (log10) greater than or equal to 0.6?
**Result** MET

**Query** Has AATGACCCATGGACCGGTTTTCCCGGTAATCCGTATTTGTT (site AATGACCCTAA) a recorded recombinant UMI read abundance (log10) greater than or equal to 0.6?
**Result** NOT MET

**Query** Has CGTAGTCCATGGACCGGTTTTCCCGGTAATCCGTATTTGTT (site CGTAGTCCTAA) a recorded recombinant UMI read abundance (log10) greater than or equal to 0.6?
**Result** NOT MET

**Query** Has GGAGTAGCATGGACCGGTTTTCCCGGTAATCCGTATTTGGT (site GGAGTAGCTAC) a recorded recombinant UMI read abundance (log10) greater than or equal to 0.6?
**Result** MET

**Query** Has GTTGAGGCATGGACCGGTTTTCCCGGTAATCCGTATTTGTG (site GTCGAGGCTCA) a recorded recombinant UMI read abundance (log10) greater than or equal to 0.6?
**Result** MET

**Query** Has TGGTCCCCATGGACCGGTTTTCCCGGTAATCCGTATTTGTA (site TGGTCCCCTTA) a recorded recombinant UMI read abundance (log10) greater than or equal to 0.6?
**Result** NOT MET

**Query** Has CAATTCACATGGACCGGTTTTCCCGGTAATCCGTATTTGGG (site CAACTCACTCC) a recorded recombinant UMI read abundance (log10) greater than or equal to 0.6?
**Result** NOT MET

**Query** Has TGATAGCCATGGACCGGTTTTCCCGGTAATCCGTATTTGAG (site TGATAGCCTCT) a recorded recombinant UMI read abundance (log10) greater than or equal to 0.6?
**Result** NOT MET

**Query** Has CGGAGGACATGGACCGGTTTTCCCGGTAATCCGTATTTGCA (site CGGAGGACTTG) a recorded recombinant UMI read abundance (log10) greater than or equal to 0.6?
**Result** MET

**Query** Has TGGCCCGCATGGACCGGTTTTCCCGGTAATCCGTATTTGGC (site TGGCCCGCTGC) a recorded recombinant UMI read abundance (log10) greater than or equal to 0.6?
**Result** MET

**Query** Has AGTCCAACATGGACCGGTTTTCCCGGTAATCCGTATTTGTA (site CGTCCAACTTA) a recorded recombinant UMI read abundance (log10) greater than or equal to 0.6?
**Result** NOT MET

**Query** Has GGAGTCGCATGGACCGGTTTTCCCGGTAATCCGTATTTGCG (site GGAGTCGCTCG) a recorded recombinant UMI read abundance (log10) greater than or equal to 0.6?
**Result** MET
